tested on: PRMT1 (protein arginine N-methyltransferase 1); experiment: PRMT1 binders on small-molecule microarrays, primary screen, biochemical, small-molecule microarray, 635 nm fluorescence (AID 1088); conditions: small-molecule microarray binding, higher = more signal;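 also: binding of Prmt1 protein to compounds spotted on small-molecule microarray slides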
Use label 1 when the recorded composite z-score is no lower than 1; use label 0 when it is lower.

Worked examples follow.
- compound: "COc1ccc(COC(=O)NN=C2C[C@@H](O)[C@@H](O)[C@@H]3[C@@H]4C(=O)N(c5ccc(F)cc5F)C(=O)[C@@H]4CC[C@@H]23)cc1"
  label.class: "label 0"
- compound: "COc1ccc([Si](C)(C)[C@@H]2[C@@H](CCO)O[C@]3(C(=O)N(Cc4ccc(NC(C)=O)cc4)c4ccccc43)[C@H]2C)cc1"
  label.class: "label 1"
- compound: "C[N+](C)(C)CCCCCCNC(=O)[C@@H]1C[C@@H]2C(=O)N3CCC[C@H]3C(=O)N2[C@@H]1c1cccc(OCCO)c1"
  label.class: "label 1"

Identify whether the reported composite z-score of the following compound is 1 or greater: COC(=O)[C@@]1(Cc2ccc(F)cc2)[C@H]2c3cc(C(=O)N(C)C)n(Cc4ccc(OC)c(OC)c4)c3C[C@H]2CN1C(=O)c1ccccc1
label 0

Identify whether the reported composite z-score of the following compound is 1 or greater: COC(=O)CC=C[C@@H](C)[C@@H](C=NO[C@H](C)c1cn([C@@H]2COC[C@H]2O)nn1)OC
label 1

Identify whether the reported composite z-score of the following compound is 1 or greater: CC(=O)OC[C@H]1O[C@H](CC=NOC[C@@H](C)[C@H](OCc2ccccc2)C(C)C)C=C[C@@H]1OC(C)=O
label 0

Identify whether the reported composite z-score of the following compound is 1 or greater: O=C1[C@H]2[C@H]3[C@H](O)[C@H](O)CC(=NOCc4ccccc4)[C@H]3CC[C@H]2C(=O)N1C[C@@H]1CCCO1
label 0

Identify whether the reported composite z-score of the following compound is 1 or greater: CCN(CC)c1ccc(N2CC=CC34O[C@@H]5/C=C\CCC(C)OC(=O)C5[C@H]3C(=O)N(CCCO)[C@@H]4C2=O)cc1 (stereo partly drawn)
label 0

Identify whether the reported composite z-score of the following compound is 1 or greater: CCCC[C@@H]1C[C@H]1[C@@H](NS(=O)(=O)c1cccc2cccnc12)c1ccc(-c2ccccc2)cc1
label 0

Identify whether the reported composite z-score of the following compound is 1 or greater: COC(=O)CC=C[C@@H](C)[C@@H](C=NO[C@@H](C)c1cc(-c2c(C)cc(C)cc2C)no1)OC
label 0

Identify whether the reported composite z-score of the following compound is 1 or greater: O=C(NN=C1C[C@@H](O)[C@@H](O)[C@@H]2[C@@H]3C(=O)N(c4cccc(Oc5ccccc5)c4)C(=O)[C@@H]3CC[C@H]12)OCc1ccccc1
label 0

Identify whether the reported composite z-score of the following compound is 1 or greater: COCCCNC(=O)[C@@]1(C)c2ccccc2C(=O)N(Cc2ccc(OC(F)(F)F)cc2)[C@H]1c1ccc(CO)cc1
label 0

Identify whether the reported composite z-score of the following compound is 1 or greater: N#Cc1ccc(NN2C(C(O)c3cccc4ccccc34)C=CC3C(=O)N(c4ccccc4)C(=O)C32)cc1 (stereo not drawn)
label 1

Identify whether the reported composite z-score of the following compound is 1 or greater: CC(=O)OC[C@H]1O[C@H](CCON=C(C)CCN2CCc3nc(-c4ccccc4)c(-c4ccccc4)cc3C2)C=C[C@@H]1OC(C)=O
label 1

Identify whether the reported composite z-score of the following compound is 1 or greater: COC(=O)C1=C(C)N(Cc2ccccc2)[C@]23O[C@](C(=O)OC)(C(=O)N2[C@@H]1c1ccccc1)[C@H]1CCOC(=O)[C@H]13
label 0

Identify whether the reported composite z-score of the following compound is 1 or greater: COCCCNC(=O)[C@@]1(CCS(=O)(=O)c2ccccc2)N=C(c2ccc(OCCCO)cc2)O[C@H]1c1ccccc1
label 1

Identify whether the reported composite z-score of the following compound is 1 or greater: O=C(CS)NCCCCCNC(=O)[C@@H]1C[C@@H]2C(=O)N[C@@H](Cc3ccccc3)C(=O)N2[C@@H]1c1ccc(O)cc1
label 1

Identify whether the reported composite z-score of the following compound is 1 or greater: Cc1ccc(S[C@]2(C(=O)O)CC(=O)N(Cc3ccccc3)[C@@H]2c2ccc(CO)cc2I)cc1
label 0

###

target: NADPH oxidase 5 (Homo sapiens) (UniProt Q96PH1); assay: NOX5-dependent H2O2 signal modulators, primary screen, NOX inhibitor project, cell-based, HEK293-NOX5, Amplex Red fluorescence (AID 1161); details: HEK293-NOX5, ionomycin, 45 min, higher = more signal
Sequence (Q96PH1 whole entry, looked up): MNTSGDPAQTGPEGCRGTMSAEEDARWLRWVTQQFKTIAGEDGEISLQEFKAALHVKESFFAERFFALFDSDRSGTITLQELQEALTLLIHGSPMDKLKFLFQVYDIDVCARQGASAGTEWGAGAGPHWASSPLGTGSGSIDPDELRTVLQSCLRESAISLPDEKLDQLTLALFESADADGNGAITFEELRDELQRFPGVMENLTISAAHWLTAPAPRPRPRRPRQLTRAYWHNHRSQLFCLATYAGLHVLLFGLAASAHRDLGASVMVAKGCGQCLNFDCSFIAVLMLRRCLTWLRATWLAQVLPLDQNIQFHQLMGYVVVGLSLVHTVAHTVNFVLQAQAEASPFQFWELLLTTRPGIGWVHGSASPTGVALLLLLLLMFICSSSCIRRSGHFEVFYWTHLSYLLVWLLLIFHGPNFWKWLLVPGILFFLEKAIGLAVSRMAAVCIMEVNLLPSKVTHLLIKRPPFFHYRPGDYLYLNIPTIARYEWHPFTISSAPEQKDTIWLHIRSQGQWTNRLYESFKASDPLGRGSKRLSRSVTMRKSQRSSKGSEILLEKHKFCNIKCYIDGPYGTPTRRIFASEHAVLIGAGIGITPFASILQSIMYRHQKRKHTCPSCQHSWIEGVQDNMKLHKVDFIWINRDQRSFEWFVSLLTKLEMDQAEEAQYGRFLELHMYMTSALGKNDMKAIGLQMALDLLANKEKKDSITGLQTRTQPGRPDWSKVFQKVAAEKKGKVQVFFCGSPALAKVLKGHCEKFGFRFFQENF
Use label 1 when the recorded z-score is no lower than -0.2; use label 0 when it is lower.

- molecule: "CC(C)[C@H](NC(=O)OC(C)(C)C)[C@@H](O)CC(=O)OC(C)(C)C"
  label.class: "label 1"

Identify whether the reported z-score of the following molecule is -0.2 or greater: O=C1[C@H]2[C@H]3[C@H](O)[C@H](O)CC(=NO[C@@H]4O[C@H](CO)[C@@H](O)[C@H](O)[C@H]4O)[C@H]3CC[C@H]2C(=O)N1Cc1ccc2c(c1)OCO2
label 1

Identify whether the reported z-score of the following molecule is -0.2 or greater: COC(=O)[C@@H]1CC[C@H](C)[C@@H](c2ccc(C)cc2)N1C(=O)c1ccc(C=NOC(C)CN2CCCCc3nc(C)c(C)cc32)cc1 (some centres not stated)
label 1

Identify whether the reported z-score of the following molecule is -0.2 or greater: CC(=O)OC[C@H]1O[C@H](CCON=C(C)CCN2CCc3nc(-c4ccccc4)c(-c4ccccc4)cc3C2)C=C[C@@H]1OC(C)=O
label 0

Identify whether the reported z-score of the following molecule is -0.2 or greater: Cn1cccc1C(O)C1C=CC2C(=O)NC(=O)C2N1Nc1ccccn1 (configuration not stated)
label 0

Identify whether the reported z-score of the following molecule is -0.2 or greater: O=C(NN=C1C[C@@H](O)[C@@H](O)[C@@H]2[C@@H]3C(=O)N(c4ccc(F)cc4F)C(=O)[C@@H]3CC[C@@H]12)OCc1ccccc1
label 1

###

For each record, write down the corresponding composite z-score.
system: Lefty1; assay: Lefty1 binders on small-molecule microarrays, primary screen, biochemical, small-molecule microarray, 635/667 nm fluorescence (AID 1139); details: small-molecule microarray binding, fluorescence 635/667; higher = more signal
Give bare numbers.

- molecule: "CC1(C)OCC(C(O)C2=CCCCC2=O)CO1 (configuration not stated)"
  tgt: "Lefty1"
  composite z-score: 1.33
- molecule: "COC(=O)CC=C[C@H](C)[C@H](CO)NS(=O)(=O)c1ccc(C)cc1"
  tgt: "Lefty1"
  composite z-score: 0.701
- molecule: "CO[C@H]1COC(=O)[C@@H]2CCCN2C(=O)CC=C[C@@H](C)[C@H](OC)COC(=O)CC=C[C@@H]1C"
  tgt: "Lefty1"
  composite z-score: 1.62

Batch request: composite z-score per item, same order as input.
1. O=C1O[C@@H](c2ccccc2)[C@@H](c2ccccc2)N2[C@@H](c3ccc(OCCO)cc3)[C@]3(C(=O)Nc4ccccc43)[C@@H](C(=O)N3CCN(c4ncccn4)CC3)[C@H]12
2. CCOC(=O)[C@H](Cc1ccccc1)NC(=O)CCC1CC(OC(=O)NCc2ccc3c(c2)OCO3)CC2(CCCC(COC(=O)NCc3cccc(C(F)(F)F)c3)O2)O1 (some centres not stated)
3. O=C1C[C@@H](O)[C@@H](O)[C@@H]2[C@@H]3C(=O)N(c4cccc(Oc5ccccc5)c4)C(=O)[C@@H]3CC[C@@H]12
4. CCOC(=O)[C@H](Cc1ccccc1)NC(=O)CCC1CC(OC(=O)NCc2ccc3c(c2)OCO3)CC2(CCCC(COC(=O)NCC(c3ccccc3)c3ccccc3)O2)O1 (some centres not stated)
5. Cn1c(=O)n2n(c1=O)[C@H]1[C@H](O)[C@@H]3O[C@@H]3C(=NOC[C@@H](O)COCc3ccco3)[C@H]1CC2
6. CC1CC/C=C\[C@H]2OC34C=CCN(C(C)C)C(=O)[C@H]3N(CCCO)C(=O)[C@@H]4C2C(=O)O1 (some centres not stated)
7. COCCOC(=O)N1C(=O)[C@@]2(c3cc(C#CC4(O)CCCCCC4)ccc31)[C@H](c1ccc(OCCO)cc1)N1[C@H](c3ccccc3)[C@H](c3ccccc3)OC(=O)[C@H]1[C@@H]2C(=O)NC[C@H](O)c1ccccc1
8. CO[C@H]1COC(=O)CC=C[C@H](C)[C@@H](NS(=O)(=O)c2ccc(C)cc2)COC(=O)CC=C[C@@H]1C

1.19
0.955
0.661
0.579
0.777
-0.837
0.907
0.819

Batch request: composite z-score per item, same order as input.
1. O=C(NN=C1C[C@@H](O)[C@@H](O)[C@@H]2[C@@H]3C(=O)N(c4cccc(Oc5ccccc5)c4)C(=O)[C@@H]3CC[C@@H]12)OCc1ccccc1
2. O=C1C2=CC[C@H]3C(=O)N(Cc4ccc5c(c4)OCO5)C(=O)[C@H]3[C@H]2[C@H](O)[C@@H]2O[C@H]12

0.211
0.408

Batch request: composite z-score per item, same order as input.
1. CC[C@@H](c1ccccc1)n1c(=O)n2n(c1=O)[C@H]1[C@H](O)[C@@H]3O[C@@H]3C(=NOCC=C(C)CCC=C(C)C)[C@H]1CC2
2. CCc1cc2c(nc1CC)CCN(CCC(C)=NO[C@@H](C)c1cc(-c3c(C)cc(C)cc3C)no1)C2
3. CCOC(=O)CCN1C(=O)[C@H]2[C@H]3[C@H](O)[C@H](O)CC(=NOC[C@@H](O)COCc4ccco4)[C@H]3CC[C@H]2C1=O
4. C[C@@H](c1ccccc1)N1C(=O)[C@H]2[C@H]3[C@H](O)C=CC(=O)[C@@H]3CC[C@H]2C1=O
5. COCCCNC(=O)[C@]1(Cc2ccccc2)N=C(c2ccc(OCCCO)cc2)O[C@@H]1c1ccccc1

1. 1.25
2. 0.388
3. 0.863
4. 0.752
5. -0.334

Batch request: composite z-score per item, same order as input.
1. CO[C@@H]1COC(=O)[C@H](C)NC(=O)[C@@H](C)COC(=O)CCC[C@H]1C
2. O=C1[C@H]2[C@H]3[C@H](O)[C@H](O)CC(=NOC[C@@H](O)COCc4ccco4)[C@H]3CC[C@H]2C(=O)N1Cc1ccc2c(c1)OCO2

[0.784, 1.25]

Batch request: composite z-score per item, same order as input.
1. CCN1C(=O)[C@H]2[C@H]3[C@H](O)[C@H](O)CC(=NOC(C)CN4CCCCc5nc(C)c(C)cc54)[C@@H]3CC[C@H]2C1=O (some centres not stated)
2. CCCNC(=O)[C@@H]1c2ccccc2C(=O)N(c2ccc(C)cn2)[C@H]1c1ccc(CO)cc1

0.672
-0.981
